# system: SF3b complexes (Homo sapiens, UniProt O75533+Q7RTV0)
# Construct: endogenous in cells; host or cells: Nuclear extracts; A HeLa S3 extract preparation is described for the in vitro splicing assay
# test summary: Scintillation proximity assay (SPA) with [3H]-labelled pladienolide probe
# Assay type: binding
# stated conditions: SF3B1 (WT); geometric mean; read-out: SPA-ATS GMean IC50 (nM) SF3B1 (WT)
Assign IC50 to each entry below.
Give bare numbers, in nM.

INSERT INTO results (compound, meas_value) VALUES
  ('C/C(=C\c1cc(F)c2nnn([C@H]3CCCOC3)c2c1)[C@H]1OC(=O)C[C@H](O)CC[C@H](C)[C@@H](OC(=O)N2CCN(C)CC2)/C=C/[C@@H]1C [Compound 162]', 1.08);

Hello, I would appreciate it if you could give IC50 for each entry below.
1. C/C(=C\c1cccc(S(=O)(=O)N2CCCCC2)c1)[C@H]1OC(=O)C[C@H](O)CC[C@H](C)[C@@H](OC(=O)N2CCN(C)CC2)/C=C/[C@@H]1C [Compound 213]
2. C/C(=C\c1ccc2ccnc(O)c2c1)[C@H]1OC(=O)C[C@H](O)CC[C@H](C)[C@@H](OC(=O)N2CCN(C)CC2)/C=C/[C@@H]1C [Compound 127]
3. C/C(=C\c1cc(F)c2cnn(C3CCN(S(C)(=O)=O)CC3)c2c1)[C@H]1OC(=O)C[C@H](O)CC[C@H](C)[C@@H](OC(=O)N2CCN(C)CC2)/C=C/[C@@H]1C [Compound 196]
4. C/C(=C\c1cccc2[nH]ncc12)[C@H]1OC(=O)C[C@H](O)CC[C@H](C)[C@@H](OC(=O)N2CCN(C)CC2)/C=C/[C@@H]1C [Compound 5]
5. COCCC(=O)N1CCN(c2cc(F)cc(/C=C(\C)[C@H]3OC(=O)C[C@H](O)CC[C@H](C)[C@@H](OC(=O)N4CCN(C)CC4)/C=C/[C@@H]3C)c2)CC1 [Compound 134]
6. C/C(=C\c1cc(F)cc(N2CCN(CCO)CC2)c1)[C@H]1OC(=O)C[C@H](O)CC[C@H](C)[C@@H](OC(=O)N2CCN(C)CC2)/C=C/[C@@H]1C [Compound 12]

## Output
1. 3.23
2. 19.1
3. 13.2
4. 6.61
5. 2.06
6. 4.88

Hello, I would appreciate it if you could give IC50 for each entry below.
1. C/C(=C\c1ccc(C)c(N2CCCC2=O)c1)[C@H]1OC(=O)C[C@H](O)CC[C@H](C)[C@@H](OC(=O)N2CCN(C)CC2)/C=C/[C@@H]1C [Compound 207]
2. C/C(=C\c1cc(F)c2nnn(C3(C)CCOCC3)c2c1)[C@H]1OC(=O)C[C@H](O)CC[C@H](C)[C@@H](OC(=O)N2CCN(C)CC2)/C=C/[C@@H]1C [Compound 156]
3. C/C(=C\c1cc(F)cc(N2CCOCC2)c1)[C@H]1OC(=O)C[C@H](O)CC[C@H](C)[C@@H](OC(=O)N2CCC(N3CCCCC3)CC2)/C=C/[C@@H]1C [Compound 262]
4. C/C(=C\c1cc(F)cc(N2CCN(C(=O)Cn3cccn3)CC2)c1)[C@H]1OC(=O)C[C@H](O)CC[C@H](C)[C@@H](OC(=O)N2CCN(Cc3cccc(O)c3)CC2)/C=C/[C@@H]1C [Compound 251]
5. C/C(=C\c1cc(F)cc(N2CCN(C(=O)Cn3cccn3)CC2)c1)[C@H]1OC(=O)C[C@H](O)CC[C@H](C)[C@@H](OC(=O)N(C)CCc2ccc(O)cc2)/C=C/[C@@H]1C [Compound 239]
6. C/C(=C\c1cc(F)cc(N2CC3CCC(C2)O3)c1)[C@H]1OC(=O)C[C@H](O)CC[C@H](C)[C@@H](OC(=O)N2CCN(C)CC2)/C=C/[C@@H]1C [Compound 32]
7. C/C(=C\c1ccnc(N2CCOCC2)c1)[C@H]1OC(=O)C[C@H](O)CC[C@H](C)[C@@H](OC(=O)N2CCN(C)CC2)/C=C/[C@@H]1C [Compound 6]

## Output
3.46
3.95
5.66
52.4
150
3.24
8.85

Hello, I would appreciate it if you could give IC50 for each entry below.
1. C/C(=C\c1cc(F)cc(N2CCN(C(=O)Cn3cccn3)CC2)c1)[C@H]1OC(=O)C[C@H](O)CC[C@H](C)[C@@H](OC(=O)NCCN(C)C)/C=C/[C@@H]1C [Compound 224]
2. [2H]C([2H])([2H])N1CCN(C(=O)O[C@H]2/C=C/C(C)C(/C(C)=C/c3cc(F)cc(N4CCOCC4)c3)OC(=O)CC(O)CC[C@@H]2C)CC1 (stereo in doubt) [Compound 220]
3. C/C(=C\c1cc(F)cc(N2CCOC(C)C2)c1)[C@H]1OC(=O)C[C@H](O)CC[C@H](C)[C@@H](OC(=O)N2CCN(C)CC2)/C=C/[C@@H]1C (stereo partly drawn) [Compound 70]
4. CC(=O)N1CCC(n2nnc3c(F)cc(/C=C(\C)[C@H]4OC(=O)C[C@H](O)CC[C@H](C)[C@@H](OC(=O)N5CCN(C)CC5)/C=C/[C@@H]4C)cc32)CC1 [Compound 160]

## Output
1: 3.14; 2: 3.17; 3: 1.55; 4: 1.65

---

# System: Panc 05.04 cells (SF3b K700E mutant)
# test summary: Cell proliferation and viability, CellTiter-Glo, 72 hours
# Format: cell-based
# stated conditions: Panc 05.04, read-out: CTGlo-ATS GMean GI50 (nM) 72 h PANC0504.1; PANC0504.1 cells, 72 h; geometric mean
Could you mark each record condition met if its GI50 falls strictly under 8 nM, and condition not met if it equals or exceeds it?

Past entries and their recorded results:
INSERT INTO measurements (compound, class_label) VALUES
  ('C/C(=C\c1cc(F)cc(-n2ccnc2)c1)[C@H]1OC(=O)C[C@H](O)CC[C@H](C)[C@@H](OC(=O)N2CCN(C)CC2)/C=C/[C@@H]1C [Compound 60]', 'condition not met'),
  ('C/C(=C\c1cc(F)cc(N2CCN(CCO)CC2)c1)[C@H]1OC(=O)C[C@H](O)CC[C@H](C)[C@@H](OC(=O)N2CCN(C)CC2)/C=C/[C@@H]1C [Compound 12]', 'condition met'),
  ('C/C(=C\c1cc(S(=O)(=O)N2CCC(O)CC2)ccc1F)[C@H]1OC(=O)C[C@H](O)CC[C@H](C)[C@@H](OC(=O)N2CCN(C)CC2)/C=C/[C@@H]1C [Compound 91]', 'condition met');

## Input For C/C(=C\c1cnn(Cc2ccncc2)c1)[C@H]1OC(=O)C[C@H](O)CC[C@H](C)[C@@H](OC(=O)N2CCN(C)CC2)/C=C/[C@@H]1C [Compound 102] , is the recorded GI50 below the cut-off of 8 nM?
## Output condition not met

## Input For C/C(=C\c1cc(F)cc(N2CCOC[C@@H]2CO)c1)[C@H]1OC(=O)C[C@H](O)CC[C@H](C)[C@@H](OC(=O)N2CCN(C)CC2)/C=C/[C@@H]1C [Compound 77] , is the recorded GI50 below the cut-off of 8 nM?
## Output condition met

## Input For C/C(=C\c1cccc2[nH]ncc12)[C@H]1OC(=O)C[C@H](O)CC[C@H](C)[C@@H](OC(=O)N2CCN(C)CC2)/C=C/[C@@H]1C [Compound 5] , is the recorded GI50 below the cut-off of 8 nM?
## Output condition not met

---

Assign GI50 to each entry below.
# Tested on: Panc 05.04 cells (SF3b K700E mutant)
# test summary: Cell proliferation and viability, CellTiter-Glo, 72 hours
# Type: cell-based
# stated conditions: Panc 05.04, read-out: CTGlo-ATS GMean GI50 (nM) 72 h PANC0504.1; 72 h; PANC0504.1; geometric mean

Worked examples, 4 compounds total:
INSERT INTO measurements (compound, meas_value) VALUES
  ('C/C(=C\c1cccc(S(=O)(=O)N2CCCC2C)c1)[C@H]1OC(=O)CC(O)CCC(C)[C@@H](OC(=O)N2CCN(C)CC2)/C=C/[C@@H]1C (stereo in doubt) [Compound 200]', '17.4 nM'),
  ('C/C(=C\c1cc(F)cc(N2CCOCC2)c1)[C@H]1OC(=O)C[C@H](O)CC[C@H](C)[C@@H](OC(=O)N2CC[C@@H](F)C2)/C=C/[C@@H]1C [Compound 247]', '40.5 nM'),
  ('C/C(=C\c1cccc(NS(=O)(=O)C2CC2)c1)[C@H]1OC(=O)C[C@H](O)CC[C@H](C)[C@@H](OC(=O)N2CCN(C)CC2)/C=C/[C@@H]1C [Compound 216]', '29 nM'),
  ('C/C(=C\c1cccc(S(=O)(=O)N2CCN(C)CC2)c1)[C@H]1OC(=O)C[C@H](O)CC[C@H](C)[C@@H](OC(=O)N2CCN(C)CC2)/C=C/[C@@H]1C [Compound 211]', '47.6 nM');

According to the records, this compound C/C(=C\c1cc(F)cc(N2CCOCC2)c1)[C@H]1OC(=O)C[C@H](O)CC[C@H](C)[C@@H](OC(=O)N2CC[C@H](N(C)C)C2)/C=C/[C@@H]1C [Compound 244] displays GI50 of 27.6 nM

Hey, just so you know, these numbers are from patent US11679107B2.
